Values were extracted from ChEMBL document CHEMBL5291721.

Quick record of AC50 values for Vasopressin V2 receptor (Homo sapiens).

# input Endpoint output: AC50 of CN(C)Cc1nnc2n1-c1ccc(Cl)cc1C(c1ccccc1)=NC2 [ADINAZOLAM] . Value?
# output > 10 µM

# input Now give it for CCOC(=O)c1ccc(N)cc1 [BENZOCAINE] too.
# output > 10 µM

# input Now give it for CC(C)[C@@H](C)/C=C/[C@@H](C)[C@H]1CC[C@H]2/C(=C/C=C3\C[C@@H](O)CC[C@@H]3C)CCC[C@]12C [DIHYDROTACHYSTEROL] too.
# output > 10 µM

# input Now give it for CC(C)NC[C@H](O)COc1ccc(CC(N)=O)cc1 [ESATENOLOL] too.
# output > 30 µM

# input Now give it for CN(C)CCCN1c2ccccc2CCc2ccccc21 [IMIPRAMINE] too.
# output > 30 µM

# input Now give it for COc1cc(C)c(/C=C/C(C)=C/C=C/C(C)=C/C(=O)O)c(C)c1C [ACITRETIN] too.
# output > 10 µM

---

Quick record of AC50 values for 5-hydroxytryptamine receptor 1A (Homo sapiens).

| compound | tested-on | AC50 |
| --- | --- | --- |
| Cc1ccc(C)c(OCCCC(C)(C)C(=O)O)c1 | 5-hydroxytryptamine receptor 1A (Homo sapiens) | > 10 µM |

# input Endpoint output: AC50 of C[C@@H]1C[C@H]2[C@@H]3C[C@H](F)C4=CC(=O)C=C[C@]4(C)[C@@]3(F)[C@@H](O)C[C@]2(C)[C@@]1(OC(=O)c1ccco1)C(=O)SCF [FLUTICASONE FUROATE] . Value?
# output > 10 µM

# input Now give it for CCc1nc(N)nc(N)c1-c1ccc(Cl)cc1 too.
# output > 10 µM

# input Now give it for CC(CN1c2ccccc2Sc2ccccc21)N(C)C (stereo not drawn) too.
# output 6.7 µM

# input Now give it for O=C(O)Cc1ccccc1Oc1ccc(Cl)cc1Cl too.
# output > 10 µM

# input Now give it for CN(Cc1cnc2nc(N)nc(N)c2n1)c1ccc(C(=O)N[C@@H](CCC(=O)O)C(=O)O)cc1 [METHOTREXATE] too.
# output > 10 µM

# input Now give it for O=c1c(O)c(-c2ccc(O)c(O)c2)oc2cc(O)cc(O)c12 too.
# output > 10 µM

# input Now give it for O=C1Cc2cc(CCN3CCN(c4nsc5ccccc45)CC3)c(Cl)cc2N1 too.
# output 0.008 µM

---

Target: Voltage-gated inwardly rectifying potassium channel KCNH2 (Homo sapiens, UniProt Q12809); also: assay procedure not described here
Sequence (Q12809 whole entry): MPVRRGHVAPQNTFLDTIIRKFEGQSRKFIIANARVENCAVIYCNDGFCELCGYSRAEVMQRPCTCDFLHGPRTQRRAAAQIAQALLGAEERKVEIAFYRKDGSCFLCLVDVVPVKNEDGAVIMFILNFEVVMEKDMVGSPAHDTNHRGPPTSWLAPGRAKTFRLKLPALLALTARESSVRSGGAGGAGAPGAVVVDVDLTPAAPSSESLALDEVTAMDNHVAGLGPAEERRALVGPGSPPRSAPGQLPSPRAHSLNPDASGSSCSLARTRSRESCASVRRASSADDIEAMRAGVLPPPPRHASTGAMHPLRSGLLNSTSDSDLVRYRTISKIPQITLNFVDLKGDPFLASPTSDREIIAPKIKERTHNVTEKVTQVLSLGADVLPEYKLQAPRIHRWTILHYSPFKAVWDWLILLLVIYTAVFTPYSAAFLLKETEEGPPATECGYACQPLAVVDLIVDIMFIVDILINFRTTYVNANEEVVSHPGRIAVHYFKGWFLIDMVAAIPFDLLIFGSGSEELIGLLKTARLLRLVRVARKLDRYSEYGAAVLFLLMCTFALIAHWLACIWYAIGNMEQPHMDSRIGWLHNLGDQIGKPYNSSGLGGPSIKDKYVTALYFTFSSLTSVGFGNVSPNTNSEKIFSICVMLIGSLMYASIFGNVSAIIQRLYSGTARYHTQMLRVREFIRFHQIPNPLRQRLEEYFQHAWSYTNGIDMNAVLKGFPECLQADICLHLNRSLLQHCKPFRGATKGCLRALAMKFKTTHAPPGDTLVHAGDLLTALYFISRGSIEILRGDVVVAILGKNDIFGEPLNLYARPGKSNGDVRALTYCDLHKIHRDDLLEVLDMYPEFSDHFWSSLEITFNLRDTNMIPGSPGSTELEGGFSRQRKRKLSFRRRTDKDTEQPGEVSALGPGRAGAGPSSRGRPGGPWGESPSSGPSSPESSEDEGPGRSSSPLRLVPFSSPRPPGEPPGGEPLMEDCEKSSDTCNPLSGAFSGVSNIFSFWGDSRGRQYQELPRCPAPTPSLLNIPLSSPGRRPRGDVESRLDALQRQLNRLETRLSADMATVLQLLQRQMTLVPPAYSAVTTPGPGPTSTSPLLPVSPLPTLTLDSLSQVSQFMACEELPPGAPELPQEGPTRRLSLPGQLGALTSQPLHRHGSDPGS
Format: functional
Catalogue of AC50 values
Respond numerically; units are nM and should not be typed.

| molecule | AC50 / nM |
| --- | --- |
| COc1cc(C(C)=O)ccc1OCCCN1CCC(c2noc3cc(F)ccc23)CC1 | 150 |

Let us examine a further case.
# input Endpoint output: AC50 of C=CC(=O)Nc1cccc(Oc2nc(Nc3ccc(N4CCN(C)CC4)cc3)nc3ccsc23)c1 . Value?
# output 540

---

Target: Sodium-dependent dopamine transporter (Homo sapiens); also: assay procedure not described here
Sequence (Q01959 whole entry): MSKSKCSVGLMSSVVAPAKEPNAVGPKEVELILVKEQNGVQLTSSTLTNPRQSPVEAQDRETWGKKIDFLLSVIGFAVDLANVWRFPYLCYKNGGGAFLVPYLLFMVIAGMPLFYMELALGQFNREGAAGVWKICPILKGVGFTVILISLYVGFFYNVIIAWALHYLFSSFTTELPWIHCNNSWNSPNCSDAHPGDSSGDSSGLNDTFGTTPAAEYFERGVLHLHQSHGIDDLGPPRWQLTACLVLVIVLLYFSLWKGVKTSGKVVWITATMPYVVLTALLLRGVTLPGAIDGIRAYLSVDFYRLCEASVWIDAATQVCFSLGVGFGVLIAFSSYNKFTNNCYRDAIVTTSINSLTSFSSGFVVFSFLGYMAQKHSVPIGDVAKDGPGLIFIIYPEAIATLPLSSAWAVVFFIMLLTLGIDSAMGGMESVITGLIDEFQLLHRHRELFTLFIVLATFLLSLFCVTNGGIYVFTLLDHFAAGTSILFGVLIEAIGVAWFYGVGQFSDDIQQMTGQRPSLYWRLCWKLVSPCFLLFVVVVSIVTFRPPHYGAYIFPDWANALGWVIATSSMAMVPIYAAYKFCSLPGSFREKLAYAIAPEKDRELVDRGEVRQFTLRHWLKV
Catalogue of AC50 values

# input Endpoint output: AC50 of CC(CN1c2ccccc2Sc2ccccc21)N(C)C (stereo unspecified) [PROMETHAZINE] . Value?
# output > 10 µM

# input Now give it for CC/C=C\C/C=C\C/C=C\C/C=C\C/C=C\CCCC(=O)OCC [ICOSAPENT ETHYL] too.
# output > 30 µM

---

Molecular target: Alpha-2C adrenergic receptor (Homo sapiens); also: assay procedure not described here
Sequence (P18825 whole entry): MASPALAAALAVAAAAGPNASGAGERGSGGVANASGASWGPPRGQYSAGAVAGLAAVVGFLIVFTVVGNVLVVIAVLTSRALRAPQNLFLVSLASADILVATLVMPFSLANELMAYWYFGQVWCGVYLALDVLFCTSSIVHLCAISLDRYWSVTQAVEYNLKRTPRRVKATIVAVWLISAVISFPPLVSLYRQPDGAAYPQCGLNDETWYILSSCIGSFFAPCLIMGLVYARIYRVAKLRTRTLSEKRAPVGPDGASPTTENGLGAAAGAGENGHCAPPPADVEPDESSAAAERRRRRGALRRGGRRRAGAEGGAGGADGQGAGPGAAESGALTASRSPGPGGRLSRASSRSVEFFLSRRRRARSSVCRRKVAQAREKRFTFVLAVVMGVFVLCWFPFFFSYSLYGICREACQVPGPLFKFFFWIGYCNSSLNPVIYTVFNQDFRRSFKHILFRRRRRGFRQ
Format: functional
observation-type: AC50

Examples with their reported AC50 follow.
| compound | AC50 |
| --- | --- |
| CCOC(=O)C1=C(C)NC(C)=C(C(=O)OCC)C1c1ccccc1/C=C/C(=O)OC(C)(C)C | > 30 µM |
| CC1(C)S[C@@H]2[C@H](NC(=O)C(C(=O)O)c3ccccc3)C(=O)N2[C@H]1C(=O)O (stereo partly specified) | > 30 µM |
| CC1=C(C(=O)OC(C)C)C(c2cccc([N+](=O)[O-])c2)C(C(=O)OC2CN(C(c3ccccc3)c3ccccc3)C2)=C(N)N1 (stereo unspecified) | 13 µM |
| NNC(=O)c1ccncc1 | > 30 µM |
| CC(=O)c1ccc(S(=O)(=O)NC(=O)NC2CCCCC2)cc1 [ACETOHEXAMIDE] | > 10 µM |

# input Endpoint output: AC50 of OC[C@H]1O[C@@H](n2cnc3c2NC=NC[C@H]3O)C[C@@H]1O . Value?
# output > 30 µM

# input Now give it for C[C@]12C=CC(=O)C=C1CC[C@@H]1[C@@H]2CC[C@]2(C)OC(=O)CC[C@@H]12 too.
# output > 10 µM

# input Now give it for O=C(O)COCCN1CCN(C(c2ccccc2)c2ccc(Cl)cc2)CC1 (stereo unspecified) too.
# output > 10 µM

# input Now give it for CCC(NC(C)C)C(O)c1ccc(O)c2[nH]c(=O)ccc12 (stereo unspecified) too.
# output > 30 µM

# input Now give it for CNC(=C[N+](=O)[O-])NCCSCc1csc(CN(C)C)n1 too.
# output > 10 µM

# input Now give it for CCCN1CCCC[C@H]1C(=O)Nc1c(C)cccc1C too.
# output > 30 µM

# input Now give it for C=C1c2cccc(O)c2C(=O)C2=C(O)[C@]3(O)C(=O)C(C(N)=O)=C(O)[C@@H](N(C)C)[C@@H]3[C@@H](O)[C@H]12 too.
# output > 10 µM

# input Now give it for CNCCc1ccc(OC(=O)C(C)C)c(OC(=O)C(C)C)c1 too.
# output 8.4 µM

# input Now give it for COC(=O)C1=C(C)NC(C)=C(C(=O)OCCN2CCN(C(c3ccccc3)c3ccccc3)CC2)C1c1cccc([N+](=O)[O-])c1 (stereo unspecified) too.
# output > 30 µM

# input Now give it for CCC(=O)O[C@](Cc1ccccc1)(c1ccccc1)[C@H](C)CN(C)C too.
# output > 10 µM

# input Now give it for CO[C@H]1C[C@H](O[C@H]2CC[C@@]3(C)[C@H](CC[C@@H]4[C@@H]3CC[C@]3(C)[C@@H](C5=CC(=O)OC5)[C@@H](OC(C)=O)C[C@]43O)C2)O[C@@H](C)[C@@H]1O too.
# output > 30 µM

---

Target: 5-hydroxytryptamine receptor 2A (Homo sapiens); also: assay procedure not described here
Sequence (P28223 whole entry): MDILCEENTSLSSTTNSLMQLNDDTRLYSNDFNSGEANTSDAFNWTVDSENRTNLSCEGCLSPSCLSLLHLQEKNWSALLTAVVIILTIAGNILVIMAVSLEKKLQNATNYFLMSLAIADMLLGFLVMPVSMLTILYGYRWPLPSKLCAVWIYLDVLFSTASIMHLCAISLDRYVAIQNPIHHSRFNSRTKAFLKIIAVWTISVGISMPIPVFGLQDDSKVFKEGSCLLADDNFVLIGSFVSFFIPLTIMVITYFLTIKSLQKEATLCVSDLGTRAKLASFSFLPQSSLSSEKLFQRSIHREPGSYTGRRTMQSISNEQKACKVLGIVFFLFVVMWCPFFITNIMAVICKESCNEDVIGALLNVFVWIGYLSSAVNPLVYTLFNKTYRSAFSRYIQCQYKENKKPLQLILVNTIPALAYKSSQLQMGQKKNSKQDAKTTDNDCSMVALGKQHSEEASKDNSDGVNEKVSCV
Type: functional, cell-based
observation-type: AC50

Examples with their reported AC50 follow.
| molecule | AC50 |
| --- | --- |
| CC(C)[C@@H](C)/C=C/[C@@H](C)[C@H]1CC[C@H]2/C(=C/C=C3\C[C@@H](O)CC[C@@H]3C)CCC[C@]12C [DIHYDROTACHYSTEROL] | > 10 µM |
| O=C(c1cc(Cc2n[nH]c(=O)c3ccccc23)ccc1F)N1CCN(C(=O)C2CC2)CC1 | > 10 µM |
| CC(C(=O)O)c1ccc2c(c1)CC(=O)c1ccccc1S2 (stereo unspecified) | > 30 µM |

# input Reported AC50 for 5-hydroxytryptamine receptor 2A (Homo sapiens), given C[N+]12CCC(CC1)C(OC(=O)C(O)(c1ccccc1)c1ccccc1)C2 (stereo unspecified) ?
# output > 30 µM

# input Now give it for C=C1c2cccc(O)c2C(=O)C2=C(O)[C@]3(O)C(=O)C(C(N)=O)=C(O)[C@@H](N(C)C)[C@@H]3[C@@H](O)[C@H]12 too.
# output > 10 µM

# input Now give it for CCC(NC(C)C)C(O)c1ccc(O)c2[nH]c(=O)ccc12 (stereo unspecified) too.
# output > 30 µM

---

Target: 5-hydroxytryptamine receptor 1A (Homo sapiens, UniProt P08908)
Sequence (P08908 whole entry): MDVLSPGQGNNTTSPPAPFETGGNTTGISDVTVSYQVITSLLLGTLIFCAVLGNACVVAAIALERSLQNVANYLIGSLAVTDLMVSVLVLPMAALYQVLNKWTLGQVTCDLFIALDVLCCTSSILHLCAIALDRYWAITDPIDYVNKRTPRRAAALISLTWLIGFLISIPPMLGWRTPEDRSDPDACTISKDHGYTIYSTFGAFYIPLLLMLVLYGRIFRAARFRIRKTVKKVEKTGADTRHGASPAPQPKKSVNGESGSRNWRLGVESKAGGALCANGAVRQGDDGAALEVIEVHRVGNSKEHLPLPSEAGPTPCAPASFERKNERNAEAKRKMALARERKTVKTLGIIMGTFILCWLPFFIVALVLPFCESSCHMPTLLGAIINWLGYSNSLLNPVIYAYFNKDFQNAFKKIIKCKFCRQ
Assay type: functional, cell-based
Catalogue of AC50 values

| compound | AC50 |
| --- | --- |
| CC(C)NC(=N)NC(=N)Nc1ccc(Cl)c(Cl)c1 | > 30 µM |
| NS(=O)(=O)c1cc2c(cc1Cl)N=C(CSCc1ccccc1)NS2(=O)=O [BENZTHIAZIDE] | > 10 µM |
| CC[C@H](C)C(=O)O[C@H]1C[C@@H](C)C=C2C=C[C@H](C)[C@H](CC[C@@H]3C[C@@H](O)CC(=O)O3)[C@H]21 | > 10 µM |

# input Reported AC50 for 5-hydroxytryptamine receptor 1A (Homo sapiens, UniProt P08908), given CC(C)C[C@H](NC(=O)[C@@H](O)[C@H](N)Cc1ccccc1)C(=O)O ?
# output > 30 µM

# input Now give it for Cc1cc(C)nc(NS(=O)(=O)c2ccc(N)cc2)n1 too.
# output > 10 µM

# input Now give it for CC(C)NC[C@H](O)COc1ccc(CC(N)=O)cc1 too.
# output > 10 µM

# input Now give it for COC(=O)C1=C(C)NC(C)=C(C(=O)OCCN2CCN(C(c3ccccc3)c3ccccc3)CC2)C1c1cccc([N+](=O)[O-])c1 (stereo not drawn) too.
# output > 30 µM

# input Now give it for NC(=O)NC(=O)Cc1ccccc1 [PHENACEMIDE] too.
# output > 10 µM
